Biological target: DB_E203A (human, UniProt P03372 176-250, E203A)
Sequence (P03372 176-250 E203A): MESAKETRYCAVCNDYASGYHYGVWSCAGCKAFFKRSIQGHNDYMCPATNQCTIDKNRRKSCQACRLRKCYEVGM
Assay: ITC
Measured Property: pKd
For clarity, pKd is expressed as the negative log10 of concentration in mol/L.

Ask: Look up pKd: ERE duplex (dsDNA) DNA 1: CCCAGGTCACAGTGACCTGCG DNA 2: CGCAGGTCACTGTGACCTGGG
Result: 6.76
